# test_target: AhR (Homo sapiens)
# Sequence (P35869 11-848): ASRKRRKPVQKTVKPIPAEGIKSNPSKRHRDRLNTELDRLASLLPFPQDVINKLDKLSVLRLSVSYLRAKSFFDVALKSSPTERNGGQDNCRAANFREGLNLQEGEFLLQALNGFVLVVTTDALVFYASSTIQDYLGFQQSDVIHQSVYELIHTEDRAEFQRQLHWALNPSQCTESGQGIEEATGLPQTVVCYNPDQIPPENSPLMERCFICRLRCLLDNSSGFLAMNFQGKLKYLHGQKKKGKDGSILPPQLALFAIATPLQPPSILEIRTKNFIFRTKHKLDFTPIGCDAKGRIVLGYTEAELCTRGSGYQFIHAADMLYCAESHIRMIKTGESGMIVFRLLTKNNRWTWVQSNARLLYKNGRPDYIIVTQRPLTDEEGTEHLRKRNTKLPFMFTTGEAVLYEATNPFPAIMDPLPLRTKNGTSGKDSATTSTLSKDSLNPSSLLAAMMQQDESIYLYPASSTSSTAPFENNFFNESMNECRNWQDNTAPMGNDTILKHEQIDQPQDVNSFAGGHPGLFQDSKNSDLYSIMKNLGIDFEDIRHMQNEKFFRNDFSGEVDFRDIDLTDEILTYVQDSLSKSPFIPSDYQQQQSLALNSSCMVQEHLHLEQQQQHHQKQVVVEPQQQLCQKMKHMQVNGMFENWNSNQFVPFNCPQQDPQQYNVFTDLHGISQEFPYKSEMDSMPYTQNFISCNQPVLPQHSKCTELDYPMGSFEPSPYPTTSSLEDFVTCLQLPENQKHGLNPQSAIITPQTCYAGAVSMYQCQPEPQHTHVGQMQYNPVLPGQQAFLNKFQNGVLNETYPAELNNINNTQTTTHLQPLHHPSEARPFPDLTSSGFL
# experimental_details: In Vitro Assay 1: XRE-luciferase reporter assay, antagonism in human cell line (HepG2)
# cond: Assay 1: AhR-Luc Human Antagonism (IC50, nM), values marked *: kynurenine 50 μM, 6 hours
assay_metric: IC50

Here's what some known entries look like.
{"columns": ["compound", "IC50"],
 "data": [
  ["Clc1ccc(-c2cc(NC[C@@H]3CCNC3)nc(-c3cccnc3)n2)cc1", "> 1000 nM"],
  ["CC[C@@H](Nc1cc(-c2ccc(Cl)cc2)nc(-c2cccnc2)n1)[C@@H](C)O", "100 to 1000 nM"],
  ["CC(C)N1C[C@@H](O)[C@H](Nc2cc(-c3ccc(Cl)cc3)nc(-c3cccnc3)n2)C1 (relative stereo)", "> 1000 nM"],
  ["O[C@H]1CCN(c2cc(-c3ccc(Cl)cc3)nc(-c3cccnc3)n2)C[C@H]1F", "10 to 100 nM"],
  ["Clc1ccc(-c2cc(N3CCNCC3)nc(-c3cccnc3)n2)cc1", "100 to 1000 nM"],
  ["CC[C@H](CO)Nc1cc(-c2ccc(Cl)cc2)nc(-c2cccnc2)n1", "10 to 100 nM"],
  ["Clc1ccc(-c2cc(N3CCOCC3)nc(-c3cccnc3)n2)cc1", "10 to 100 nM"]
]}

Read the next record carefully.
Could you share what IC50 was measured for C[C@H](O)CNc1cc(-c2ccc(Cl)cc2)nc(-c2cccnc2)n1 , tested on AhR (Homo sapiens)? 100 to 1000 nM
